Target: unphosphorylated-BTK kinase domain (UP-BTK), GST-tagged human BTK (389-659aa) (Homo sapiens (Human))
Sequence (Q06187 389-659): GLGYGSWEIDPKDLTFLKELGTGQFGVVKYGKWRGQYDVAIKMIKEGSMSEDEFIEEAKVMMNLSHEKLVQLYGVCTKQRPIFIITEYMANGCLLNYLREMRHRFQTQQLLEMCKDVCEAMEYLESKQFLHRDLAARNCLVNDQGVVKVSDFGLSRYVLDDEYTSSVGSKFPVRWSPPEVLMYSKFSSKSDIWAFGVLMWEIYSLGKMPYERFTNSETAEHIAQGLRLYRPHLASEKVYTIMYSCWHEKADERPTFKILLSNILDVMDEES
Assay: BTK kinase Lanthascreen binding assay
Conditions: Lanthascreen tracer competition, 60 minutes incubation; pIC50 = negative log of the IC50 in molar
Description: BTK Kinase Lanthascreen Binding Assay: A BTK kinase lanthascreen binding assay monitors compound binding to unphosphorylated-BTK kinase domain (UP-BTK), by competing with a fluorescent labeled tracer. […] Data were analyzed using Xlfit™ version 5.3 from ID Business Solutions (Guildford), Microsoft Excel add-in. pIC50 refers to the negative log of the IC50 in molar
VALUE_KIND: BTK_I_binding pIC50

CC(=O)N1CCC[C@@H](NC(=O)c2sc3nccc4c3c2NC(=O)N4c2ccc(Oc3ccccn3)cc2C)C1
6.2
C=CC(=O)N1CCC[C@@H](NC(=O)c2sc3nccc4c3c2NC(=O)N4c2cccc(C3CCOCC3)c2)C1
6.5
C=CC(=O)N1CCC[C@@H](NC(=O)c2sc3nccc4c3c2NC(=O)N4c2ccc(S(=O)(=O)C(C)(C)C)cc2)C1
5.6
C=CC(=O)N1CCC[C@@H](NC(=O)c2sc3nccc4c3c2NC(=O)N4c2ccc(Oc3ccccn3)cc2)C1
7.6
C=CC(=O)N1CCC[C@@H](NC(=O)c2sc3nccc4c3c2NC(=O)N4c2ccc(Oc3ccccc3)c(Cl)c2)C1
7.6
O=C(N[C@@H]1CNCC[C@H]1O)c1sc2nccc3c2c1NC(=O)N3c1ccc(Oc2ccccc2)cc1
6.6
C=CC(=O)N1CCC[C@@H](NC(=O)c2sc3nccc4c3c2NC(=O)N4c2ccc(Oc3ccccn3)cc2C)C1
8.0
Cc1cc(Oc2ccccc2)ccc1N1C(=O)Nc2c(NC(=O)C3CCN(C(=O)CC#N)CC3)sc3nccc1c23
5.9
C=CC(=O)N1CCC[C@@H](NC(=O)c2sc3nccc4c3c2NC(=O)N4c2ccnc(C(C)C)c2)C1
6.9
C=CC(=O)N1CCC[C@@H](NC(=O)c2sc3nccc4c3c2NC(=O)N4c2ncc(Oc3ccccc3)nc2C)C1
7.7
C=CC(=O)N1CCC[C@@H](NC(=O)c2sc3nccc4c3c2NC(=O)N4c2cc(-c3ccccc3)ccc2C)C1
7.5
O=C(N[C@@H]1CCCN(C(=O)/C=C/CO)C1)c1sc2nccc3c2c1NC(=O)N3c1ccc(Oc2ccccc2)cc1
7.5
Cc1cc(OCC(C)C)ncc1N1C(=O)Nc2c(C(=O)N[C@@H]3CCNC3)sc3nccc1c23 (single isomer, unassigned)
6.3
C=CC(=O)N1CC[C@@H](NC(=O)c2sc3nccc4c3c2NC(=O)N4c2cnc(Oc3ccccc3)nc2C)C1 (single isomer, unassigned) [Example 724]
6.1
C=CC(=O)N1CCC[C@@H](NC(=O)c2sc3nccc4c3c2NC(=O)N4c2cccc(Oc3ccccc3)n2)C1
5.8
C=CC(=O)N1CCC[C@@H](NC(=O)c2sc3nccc4c3c2NC(=O)N4c2cnnc(-c3ccccc3)c2)C1
7.3
C=CC(=O)N1CCC[C@@H](NC(=O)c2sc3nccc4c3c2NC(=O)N4c2ccc(Oc3cccnn3)cc2C)C1
7.4
Cc1cc(Oc2ccccc2)ccc1N1C(=O)Nc2c(C(=O)N[C@H]3CCCN(C(=O)/C(C#N)=C/C4CC4)C3)sc3nccc1c23
6.8
C=CC(=O)N1C[C@@H](O)C[C@@H](NC(=O)c2sc3nccc4c3c2NC(=O)N4c2cccc(-c3cccc(F)c3F)c2)C1
8.2
Cc1cc(Oc2ccccc2)ccc1N1C(=O)Nc2c(C(=O)N[C@H]3CCCN(C(=O)CC#N)C3)sc3nccc1c23
7.0
O=C(N[C@@H]1CCCNC1)c1sc2nccc3c2c1NC(=O)N3c1cccc(OC2CCCCC2)c1
6.1
Cc1cc(Oc2ccccc2)ccc1N1C(=O)Nc2c(C(=O)NC3CCN(C#N)CC3)sc3nccc1c23
7.2
Cc1cc(Oc2ccccc2)ccc1N1C(=O)Nc2c(C(=O)N[C@@H]3CCCN(C(=O)/C(C#N)=C/C(C)(C)C)C3)sc3nccc1c23 (single isomer, unassigned) [Example 866]
7.3
Cc1cc(Oc2ccccc2)ccc1N1C(=O)Nc2c(C(=O)N[C@@H]3CCCN(C(=O)[C@H]4CCN4)C3)sc3nccc1c23
7.6
CCC(=O)N1CC[C@@H](NC(=O)c2sc3nccc4c3c2NC(=O)N4c2ccc(Oc3ccccc3)cc2C)C1
7.6
